B1: library; a variant is named by its letters at N, in order (parent)
chain: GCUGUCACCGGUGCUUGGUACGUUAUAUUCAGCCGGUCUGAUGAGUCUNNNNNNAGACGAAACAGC

variants of: B1; assay: normalized RNA/DNA level with ligand (relative to sTRSVctl = 100) (log10 (% of sTRSVctl)); HEK293T overexpressing SLC46A1; ligand concentration (+) RNA-Seq: 6 mM; higher = less ribozyme self-cleavage, higher mRNA level; details: with (6R,S)-folinic acid; ligand present: yes
MEASUREMENT_LABEL: normalized RNA/DNA level with ligand (log10)
Reply briefly: the number, and no unit.

Examples with their reported normalized RNA/DNA level with ligand (log10) follow.
MUTANT_NAME	NUMBER
AGCAAG	2.01
GACCUA	2.05
AGAGUC	2.02
CGGAGC	2
AACCGA	1.99

Record request: normalized RNA/DNA level with ligand (log10) value, item CCUACA
2.04

So what's the measured normalized RNA/DNA level with ligand (log10) for this one? GCACAA
2

What value of normalized RNA/DNA level with ligand (log10) has been recorded for this entry: GGAUCA
2.03

Please report the recorded normalized RNA/DNA level with ligand (log10) for UGCGAG .
1.96

Could you tell me which normalized RNA/DNA level with ligand (log10) is on file for UAGCGA ?
2.03

Which value of normalized RNA/DNA level with ligand (log10) has been reported for CGAGUU in the records?
2

State the recorded normalized RNA/DNA level with ligand (log10) for this entry: GCCAUC
2

I have this variant here, UGCAGU , and I need its recorded normalized RNA/DNA level with ligand (log10).
1.96

Could you share which normalized RNA/DNA level with ligand (log10) value was measured for GCAGUA ?
2.02

State the recorded normalized RNA/DNA level with ligand (log10) for this entry: AUUGCG
2

I am curious: what normalized RNA/DNA level with ligand (log10) value has been reported for UGAAAC ?
2

Entry GCGUGU : reported normalized RNA/DNA level with ligand (log10) = ?
2.04

Requested field: normalized RNA/DNA level with ligand (log10). Item: UGUAGA
2

For the variant shown here, AACCGU , give the reported normalized RNA/DNA level with ligand (log10).
2

# query: normalized RNA/DNA level with ligand (log10) of entry UGGCGC
2.05

Quick check: normalized RNA/DNA level with ligand (log10) of CUCCUC ?
1.99

Entry under review: UAGGGC . Reported normalized RNA/DNA level with ligand (log10)?
2.02
